System: Plasmodium falciparum
assay-notes: NOVARTIS: Inhibition of Plasmodium falciparum W2 (drug-resistant) proliferation in erythrocyte-based infection assay
Assay type: functional, organism-based
cond: Plasmodium falciparum, W2; read-out: EC50
Under this convention, Condition met denotes EC50 strictly below 400 nM and Condition not met denotes EC50 at or above 400 nM.

Would you please look over these solved cases?
COc1ccc(C=NNc2cc(C)nc(-c3ccccc3)n2)cc1OC
Condition not met
O=C(Nc1ccc(-c2nc3cc(-c4nc5ccccc5o4)ccc3[nH]2)cc1)c1ccc([N+](=O)[O-])cc1
Condition not met
CN1CCCC(CNC(=O)c2cnn(-c3ncc4c(n3)-c3ccccc3SC4)c2C2CC2)C1 (stereo unspecified)
Condition not met
CCCOc1ccc2c(c1)C(=NN=C(N)N)c1cc(OCCC)ccc1-2
Condition met
Cn1c(=O)n(Cc2ccccc2)c(=O)c2c1nc(SCC(=O)Nc1ccccc1)n2Cc1ccccc1
Condition met
CCc1cccc(NS(=O)(=O)c2ccc3[nH]c(=O)c(=O)[nH]c3c2)c1
Condition not met
Cc1ccccc1CN1CCN(CC=Cc2ccccc2)CCC1=O
Condition not met
C[n+]1ccc(C=Cc2ccccc2F)c2ccccc21
Condition met
Cc1cc(Cl)ccc1OC(C)C(=O)N1CCc2ccccc21 (stereo unspecified)
Condition not met

Would you kindly look at the next entry?
Determine if Cc1onc(-c2ccccc2Cl)c1C(=O)Nc1cc(Cl)ccc1Cl shows EC50 strictly lower than 400 nM.
Condition met

====

assay-notes: NOVARTIS: Cytotoxicity against human hepatocellular carcinoma cell line (Huh7)
Type: toxicity, cell-based, Huh-7
cond: Huh7 cells (hepatocellular carcinoma cell line)
Recorded CC50 values for a group of molecules are listed next.

CC(NS(=O)(=O)c1ccccc1)C(=O)NC1CCCC1 (stereo unspecified)
> 100 µM
Cn1nc(C(F)(F)F)c(-c2ccc(F)cc2)c1NC(=O)Nc1ccccc1
54.3 µM
COc1ccc(C=NNc2nc(Nc3ccc([N+](=O)[O-])cc3)nc(N3CCN(C)CC3)n2)cc1OC
15.2 µM
COc1ccc(CN2CCN(C(=O)c3sc4ncn(Cc5ccccc5F)c(=O)c4c3C)CC2)c(OC)c1OC
> 10 µM
CCCCSCC(O)CN1CCCCC1 (stereo unspecified)
> 100 µM

response.value for COc1ccccc1N1CCN([C@@H]2CCN(Cc3cccnc3)C[C@@H]2CCC(=O)N2CCCC2)CC1 (field: CC50) = > 10 µM

response.value for CC(=O)N1c2ccccc2CC1C(=O)NCc1cccc(Cl)c1 (stereo unspecified) (field: CC50) = > 100 µM

response.value for CCOC(=O)c1cnc2ccccc2c1Nc1ccc(OC)c(OC)c1 (field: CC50) = 85.4 µM

response.value for CN(C)Cc1c(O)ccc2oc(Cc3ccccc3)cc12 (field: CC50) = 20.1 µM

====

Test system: Plasmodium falciparum
assay-notes: NOVARTIS: Inhibition of Plasmodium falciparum W2 (drug-resistant) proliferation in erythrocyte-based infection assay
Type: functional, organism-based
cond: Plasmodium falciparum, W2; read-out: EC50
measured-endpoint: pEC50
By convention, pEC50 is the negative base-10 log of a molar concentration.

C=CCSc1nc(N)c2c3c(sc2n1)CN(CCC)CC3
6.78

Recorded pEC50 for Cc1cc(N2CCN(c3ccccn3)CC2)n2c(nc3ccccc32)c1C#N on Plasmodium falciparum was 5.56

Recorded pEC50 for CC(C)NCC(O)Cn1c2ccc(Cl)cc2c2cc(Cl)ccc21 (stereo not given) on Plasmodium falciparum was 7.41

Recorded pEC50 for COc1ccccc1N1CCN(C(=O)Nc2ccc3ccccc3c2)CC1 on Plasmodium falciparum was 6.50

Recorded pEC50 for Cc1cc(Nc2cccc3ccccc23)nc(Nc2cccc3ccccc23)n1 on Plasmodium falciparum was 6.40

Recorded pEC50 for CCOc1ccc2c(c1)c1nnc(-c3ccc4c(c3)OCO4)c-1cn2Cc1ccc(Cl)cc1 on Plasmodium falciparum was 5.30

Recorded pEC50 for CCN1CCN(Cc2ccc(N(CC)CC)cc2)CC1 on Plasmodium falciparum was 5.51

Recorded pEC50 for O=C(NCCc1ccccc1)c1cnc(NCCCn2ccnc2)nc1NCC1CCCCC1 on Plasmodium falciparum was 6.68
